Where these numbers come from: patent US7807678B2

Please provide measured Ki for the entries that follow.
- ASSAY_SYSTEM: MC3-R (Homo sapiens)
- Sequence (P41968 whole entry): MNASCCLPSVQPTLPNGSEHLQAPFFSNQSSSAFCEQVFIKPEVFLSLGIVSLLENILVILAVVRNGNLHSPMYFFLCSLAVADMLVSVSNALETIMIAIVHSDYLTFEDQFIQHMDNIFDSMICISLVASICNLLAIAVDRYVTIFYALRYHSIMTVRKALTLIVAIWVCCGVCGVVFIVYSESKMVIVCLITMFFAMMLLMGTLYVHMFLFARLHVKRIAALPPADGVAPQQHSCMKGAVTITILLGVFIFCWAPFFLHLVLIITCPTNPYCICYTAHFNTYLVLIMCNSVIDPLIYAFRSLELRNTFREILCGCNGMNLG
- PROTOCOL_NOTES: Ki determination by the method of Example 4, MC3-R
- Assay type: binding
- Set-up: expressed in transfected cells; host or cells: HEK-293
- CONDITION_DESCRIPTION: bound in μM; read-out: Ki MC3-R

Entry NCCCCC1C(=O)N2C(COc3ccc4ccccc4c3)CCC2N1C(=O)C(Cc1ccc(Cl)cc1)NC(=O)C1Cc2ccccc2CN1 (stereo not shown) [Example 80] , MC3-R (Homo sapiens) data, Ki value: > 1 µM

Entry N=C(N)NCCCC1C(=O)N2C(COc3ccc4ccccc4c3)CCC2N1C(=O)C(Cc1ccccc1Cl)NC(=O)C(N)COCc1ccccc1 (stereo not shown) [Example 99] , MC3-R (Homo sapiens) data, Ki value: > 1 µM

Entry NCCCC[C@H]1C(=O)N(CCc2ccc3ccccc3c2)CCN1C(=O)[C@@H](Cc1ccc(Cl)cc1Cl)NC(=O)[C@@H]1CC[C@H](c2ccccc2)N1 [Example 26] , MC3-R (Homo sapiens) data, Ki value: > 1 µM

Entry N=C(N)NCCCC1C(=O)N2C(COc3ccc4ccccc4c3)CCC2N1C(=O)C(Cc1ccccc1)NC(=O)C(N)Cc1cnc[nH]1 (stereo not shown) [Example 97] , MC3-R (Homo sapiens) data, Ki value: > 1 µM
